Consider compounds characterized by their pKi with human NTCP (Homo sapiens).
Sequence (Q14973 whole entry): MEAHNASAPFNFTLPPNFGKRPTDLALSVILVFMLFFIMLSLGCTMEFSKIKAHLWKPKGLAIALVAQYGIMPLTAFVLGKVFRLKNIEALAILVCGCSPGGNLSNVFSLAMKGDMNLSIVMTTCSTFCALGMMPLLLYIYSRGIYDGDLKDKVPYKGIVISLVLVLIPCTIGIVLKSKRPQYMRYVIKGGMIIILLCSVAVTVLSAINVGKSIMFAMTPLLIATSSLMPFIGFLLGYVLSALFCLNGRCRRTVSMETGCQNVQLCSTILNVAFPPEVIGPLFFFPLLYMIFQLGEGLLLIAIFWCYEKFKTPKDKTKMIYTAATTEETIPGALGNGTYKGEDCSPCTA
Keep it numeric: pKi is minus log10 of the concentration in mol/L.

Input line: Item C[C@H]1C[C@@H]2[C@H]([C@@H](O)C[C@@]3(C)[C@H]2CC[C@]3(O)C(=O)CO)[C@@]2(C)C=CC(=O)C=C12 [Methylprednisolone] : provide pKi
Output line: 3.62

Input line: Indicate its recorded pKi; the compound in question is COc1ccc([C@@H]2Sc3ccccc3N(CCN(C)C)C(=O)[C@@H]2OC(C)=O)cc1 [Diltiazem]
Output line: 3.22

Input line: Supply reported pKi belonging to this compound: CC(=O)N1CCN(c2ccc(OCC3COC(Cn4ccnc4)(c4ccc(Cl)cc4Cl)O3)cc2)CC1 (stereo not drawn) [Ketoconazole]
Output line: 3.69

Input line: Give a short answer stating reported pKi for CCc1nn(CCCN2CCN(c3cccc(Cl)c3)CC2)c(=O)n1CCOc1ccccc1 [Nefazodone] .
Output line: 3.90

Input line: // fetch pKi given entry COc1ccc2c(c1)c(CC(=O)O)c(C)n2C(=O)c1ccc(Cl)cc1 [Indomethacin]
Output line: 3.76

Input line: Note pKi for the compound shown: CCOc1nc2cccc(C(=O)O)c2n1Cc1ccc(-c2ccccc2-c2nnn[nH]2)cc1 [Candesartan]
Output line: 3.63

Input line: Recall and state the measured pKi for CC(C)[C@H]1CC[C@H](C(=O)N[C@H](Cc2ccccc2)C(=O)O)CC1 [Nateglinide] .
Output line: 3.70

Input line: Specify measured pKi for CCCN(CCC)S(=O)(=O)c1ccc(C(=O)O)cc1 [Probenecid] .
Output line: 3.26

Input line: Give the reported value of pKi for this record: CC(C(=O)O)c1cccc(C(=O)c2ccccc2)c1 (stereo not drawn) [Ketoprofen]
Output line: 3.49

---

- Experimental system: UniProtKB Q12908
- Sequence (Q12908 1-348): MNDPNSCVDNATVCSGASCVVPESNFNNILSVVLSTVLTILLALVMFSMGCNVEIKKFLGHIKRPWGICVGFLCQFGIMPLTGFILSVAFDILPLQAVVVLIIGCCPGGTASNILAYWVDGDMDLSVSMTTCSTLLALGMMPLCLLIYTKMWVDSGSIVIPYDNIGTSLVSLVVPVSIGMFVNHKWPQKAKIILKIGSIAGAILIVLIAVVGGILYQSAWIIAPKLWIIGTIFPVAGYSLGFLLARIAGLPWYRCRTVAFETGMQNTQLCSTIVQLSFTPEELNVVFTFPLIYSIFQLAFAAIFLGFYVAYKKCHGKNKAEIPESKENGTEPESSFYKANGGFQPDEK
- Assay type: cell-based
- Particulars: inhibitor = Ki below 300 μM

{"Compound": "Clc1ccc(C(Cn2ccnc2)OCc2ccsc2Cl)c(Cl)c1 (stereo not shown)", "ASBT inhibitor or non-inhibitor": "ASBT inhibitors"}
{"Compound": "Clc1ccc(COC(Cn2ccnc2)c2ccc(Cl)cc2Cl)cc1 (stereo not shown)", "ASBT inhibitor or non-inhibitor": "ASBT inhibitors"}
{"Compound": "CC(=O)N1CCN(c2ccc(OCC3COC(Cn4ccnc4)(c4ccc(Cl)cc4Cl)O3)cc2)CC1 (stereo not shown)", "ASBT inhibitor or non-inhibitor": "ASBT inhibitors"}

---

- Experimental system: human ASBT (Homo sapiens)
- Assay type: cell-based
- Particulars: read-out: Estimated Ki for ASBT
Counter-ions that a name gives are not always drawn.
potency estimated from few doses under 70 µM gets fulfilled, anything at or over 70 µM gets not fulfilled.

Input line: I wonder whether `CCCCc1nc(Cl)c(CO)n1Cc1ccc(-c2ccccc2-c2nn[nH]n2)cc1` has potency estimated from few doses below 70 µM. Can you tell?
Output line: not fulfilled

Input line: Given the entry COc1cc2nc(N3CCN(C(=O)C4COc5ccccc5O4)CC3)nc(N)c2cc1OC (stereo not drawn) , would its reported potency estimated from few doses be below 70 µM?
Output line: fulfilled

Input line: For this compound, is potency estimated from few doses lower than 70 µM? O=C(c1ccc(OCCN2CCCCC2)cc1)c1c(-c2ccc(O)cc2)sc2cc(O)ccc12 [Raloxifene HCl]
Output line: fulfilled

Input line: Field: below-cutoff. Rule: recorded potency estimated from few doses strictly less than 70 µM. Subject: CC(C)OC(=O)C(C)(C)Oc1ccc(C(=O)c2ccc(Cl)cc2)cc1 [Fenofibrate]
Output line: not fulfilled

Input line: Input Clc1ccc(C(Cn2ccnc2)OCc2ccsc2Cl)c(Cl)c1 (stereo not drawn) ; condition: potency estimated from few doses strictly below 70 µM. Does it hold?
Output line: fulfilled

Input line: Check if potency estimated from few doses falls below 70 µM for COc1ccc(CC(C)NCC(O)c2ccc(O)c(NC=O)c2)cc1 (stereo not drawn) .
Output line: not fulfilled

Input line: Find out if reported potency estimated from few doses for COc1ccc2[nH]c([S+]([O-])Cc3ncc(C)c(OC)c3C)nc2c1 (stereo not drawn) is less than 70 µM
Output line: not fulfilled

Input line: Please let me know if `CCOC(=O)[C@H](CCc1ccccc1)N[C@@H](C)C(=O)N1CCC[C@H]1C(=O)O` shows potency estimated from few doses below 70 µM.
Output line: not fulfilled

Input line: Is potency estimated from few doses of CC(=O)N1CCN(c2ccc(OCC3COC(Cn4ccnc4)(c4ccc(Cl)cc4Cl)O3)cc2)CC1 (stereo not drawn) strictly below 70 µM?
Output line: fulfilled

Input line: Lab note: confirm whether the reported potency estimated from few doses for this compound is below 70 µM, equality not counting. compound: `Cc1ncc([N+](=O)[O-])n1CCO`
Output line: not fulfilled

Input line: In plain terms, does NS(=O)(=O)c1cc2c(cc1C(F)(F)F)NC(Cc1ccccc1)NS2(=O)=O (stereo not drawn) [Bendroflumethiazide] come in under 70 µM for potency estimated from few doses?
Output line: not fulfilled

Input line: Regarding `CCOc1nc2cccc(C(=O)O)c2n1Cc1ccc(-c2ccccc2-c2nnn[nH]2)cc1` , kindly confirm whether its potency estimated from few doses is beneath 70 µM.
Output line: fulfilled
